Assay: dissolution of suspensions of 1, 2 and 3 g in 200 cm3 of water, stirred at room temperature
Type: physicochemical
Conditions: Concentration 5 g/l (1 g in 200 cm3 water), insoluble filtered, dried and weighed after at most 10 minutes
observable: Pourcentage dissous
When you answer, write just the number.

// known answers, use as guide
INSERT INTO measurements (compound, result_value) VALUES
  ('CC(=O)Nc1ccc(O)cc1 [Aggloméré, paracétamol]', 100),
  ('CC(=O)Nc1ccc(O)cc1 [Broyé super fin, paracétamol]', 100);

Note to self: Pourcentage dissous recorded for CC(=O)Nc1ccc(O)cc1 [Broyé, paracétamol] was 100
